All figures here come from patent US11059795B2.

assay: Microsomal stability assay, human liver microsomes; format: in vitro ADME; details: pH 7.4, 1 μM compound, 0.5 mg/mL protein, 37° C., read-out: HLM +/− NADPH: Clint (μL/min/mg protein)
Measured microsomal CLint at 1 μM values are reported for all entries that follow.

compound	microsomal CLint at 1 μM
CC(C)(C)C(=O)N(c1ccc(OCc2coc(NS(C)(=O)=O)n2)cc1)c1cc(Cl)c(OCCCl)c(C#N)c1	12 to 48 µL/min/mg
CC(C)(c1ccc(OCc2nc(NS(C)(=O)=O)cs2)cc1)c1cc(Cl)c(OCCCl)c(C#N)c1	< 12 µL/min/mg
CC(Oc1ccc(C(C)(O)c2cc(Cl)c(OCCCl)c(C#N)c2)cc1)c1ocnc1S(C)(=O)=O (centres unmarked)	12 to 48 µL/min/mg
CC(C)(c1ccc(OCc2ccc(S(C)(=O)=O)o2)cc1)c1cc(Cl)c(OCCCl)c(C#N)c1	< 12 µL/min/mg
CC(C)(c1ccc(OCc2cnc(NS(C)(=O)=O)nc2)cc1)c1cc(Cl)c(OCCCl)c(C#N)c1	< 12 µL/min/mg
CSc1nc(COc2ccc(C(C)(C)c3cc(Cl)c(OCCCl)c(C#N)c3)cc2)c(C)o1	≥ 48 µL/min/mg
CC(C)(c1ccc(CCc2ccnc(N)n2)cc1)c1cc(Cl)c(OCCCl)c(C#N)c1	12 to 48 µL/min/mg
CC(C)(c1ccc(OCc2cc(CN)nc(NS(C)(=O)=O)n2)cc1)c1cc(Cl)c(OCCCl)c(C#N)c1	< 12 µL/min/mg
CC(C)(c1ccc(OCc2nc(C#N)cs2)cc1)c1cc(Cl)c(OCCCl)c(C#N)c1	< 12 µL/min/mg
COC(=O)Nc1nc(COc2ccc(C(C)(C)c3cc(Cl)c(OCCCl)c(C#N)c3)cc2)co1	12 to 48 µL/min/mg
CC(C)(c1ccc(-c2coc(CNS(C)(=O)=O)n2)cc1)c1cc(Cl)c(OCCCCl)c(Cl)c1	< 12 µL/min/mg
CCS(=O)(=O)Nc1nc(COc2ccc(C(C)(C)c3cc(Cl)c(OCCCl)c(C#N)c3)cc2)co1	< 12 µL/min/mg
CC(C)(c1ccc(C(=O)Nc2ccnc(N)n2)cc1)c1cc(Cl)c(OCCCl)c(Cl)c1	12 to 48 µL/min/mg
CC(C)(c1ccc(OCc2csc(S(C)(=O)=O)n2)cc1)c1cc(Cl)c(OCCCl)c(C#N)c1	12 to 48 µL/min/mg

----------
test: Microsomal stability assay, mouse liver microsomes; format: in vitro ADME; details: mouse, liver microsomes, pH 7.4, mouse liver microsomes, 1 μM compound, 0.5 mg/mL protein, 37° C.; read-out: MLM +30/− NADPH: Clint (μL/min/mg protein)

mol	microsomal CLint at 1 μM
COc1ncc(COc2ccc(C(C)(C)c3cc(Cl)c(OCCCl)c(C#N)c3)cc2)o1	12 to 48 µL/min/mg
CC(C)(c1ccc(OCc2cnc(CN)o2)cc1)c1cc(Cl)c(OCCCl)c(C#N)c1	12 to 48 µL/min/mg
CC(C)(c1ccc(OCc2nc(C#N)co2)cc1)c1cc(Cl)c(OCCCl)c(C#N)c1	12 to 48 µL/min/mg
CSc1nc(C)c(COc2ccc(C(C)(C)c3cc(Cl)c(OCCCl)c(C#N)c3)cc2)o1	≥ 48 µL/min/mg

----------
experiment: Hepatocyte stability assay, mouse hepatocytes; type: in vitro ADME; settings: mouse, cryopreserved hepatocytes, 1 μM compound, 0.5 million cells/mL, 37° C., read-out: MH +/− NADPH: Clint (μL/min/million cells)

compound	hepatocyte CLint at 1 μM
CC(C)(c1ccc(OCc2ccnnc2NS(C)(=O)=O)cc1)c1cc(Cl)c(OCCCl)c(C#N)c1 [Compound A102]	< 4 µL/min/1e6 cells
CCS(=O)(=O)Nc1nccc(COc2ccc(C(C)(C)c3cc(Cl)c(OCCCl)c(C#N)c3)cc2)n1 [Compound A131]	< 4 µL/min/1e6 cells
CC(C)(c1ccc(OCc2coc(NS(C)(=O)=O)n2)cc1)c1cc(Cl)c(OCCCl)c(C#N)c1 [Compound A130]	< 4 µL/min/1e6 cells
C[C@](O)(c1ccc(OCc2ocnc2S(C)(=O)=O)cc1)c1cc(Cl)c(OCCCl)c(C#N)c1 [Compound A108]	≥ 18 µL/min/1e6 cells
CC(C)(c1ccc(OCc2ocnc2S(C)(=O)=O)cc1)c1cc(Cl)c(OCC(O)CCl)c(Cl)c1 (stereo not drawn) [Compound A117]	≥ 18 µL/min/1e6 cells
COC(=O)Nc1nc(COc2ccc(C(C)(C)c3cc(Cl)c(OCCCl)c(C#N)c3)cc2)co1 [Compound A156]	≥ 18 µL/min/1e6 cells
CC(C)(c1ccc(OCc2coc(S(N)(=O)=O)c2)cc1)c1cc(Cl)c(OCCCl)c(C#N)c1 [Compound A207]	< 4 µL/min/1e6 cells
CC(C)(c1ccc(OCc2nc(NS(C)(=O)=O)cs2)cc1)c1cc(Cl)c(OCCCl)c(C#N)c1 [Compound A137]	< 4 µL/min/1e6 cells
CC(C)S(=O)(=O)c1nc(COc2ccc(C(C)(C)c3cc(Cl)c(OCCCl)c(C#N)c3)cc2)co1 [Compound A125]	≥ 18 µL/min/1e6 cells
CC(C)(c1ccc(OCc2nc(NS(C)(=O)=O)nc3c2CCC3)cc1)c1cc(Cl)c(OCCCl)c(C#N)c1 [Compound A202]	≥ 18 µL/min/1e6 cells
CC(C)(c1ccc(C(=O)Nc2ccnc(N)n2)cc1)c1cc(Cl)c(OCCCl)c(Cl)c1 [Compound A146]	≥ 18 µL/min/1e6 cells
CC(Oc1ccc(C(C)(C)c2cc(Cl)c(OCCCl)c(C#N)c2)cc1)c1ccnc(S(C)(=O)=O)n1 (stereo not drawn) [Compound A147]	≥ 18 µL/min/1e6 cells
CC(C)(c1ccc(OCc2ccnc(N3CCCS3(=O)=O)n2)cc1)c1cc(Cl)c(OCCCl)c(C#N)c1 [Compound A199]	4 to 18 µL/min/1e6 cells
CC(C)(c1ccc(OCc2cnc(NS(C)(=O)=O)nc2)cc1)c1cc(Cl)c(OCCCl)c(C#N)c1 [Compound A204]	< 4 µL/min/1e6 cells
CC(Oc1ccc(C(C)(C)c2cc(Cl)c(OCCCl)c(C#N)c2)cc1)c1coc(NS(C)(=O)=O)n1 (stereo not drawn) [Compound A91]	4 to 18 µL/min/1e6 cells
[2H]c1c([2H])c(C(C)(C)c2cc(Cl)c(OCCCl)c(C#N)c2)c([2H])c([2H])c1OCc1ccnc(NS(C)(=O)=O)n1 [Compound A201]	< 4 µL/min/1e6 cells
CC(C)(c1ccc(OCc2cnc(C#N)o2)cc1)c1cc(Cl)c(OCCCl)c(C#N)c1 [Compound A113]	≥ 18 µL/min/1e6 cells
CSc1nc(COc2ccc(C(C)(C)c3cc(Cl)c(OCCCl)c(C#N)c3)cc2)c(C)o1 [Compound A118]	4 to 18 µL/min/1e6 cells

----------
experiment: Microsomal stability assay, mouse liver microsomes; type: in vitro ADME; conditions: mouse, liver microsomes, pH 7.4, mouse liver microsomes, 1 μM compound, 0.5 mg/mL protein, 37° C.; read-out: MLM +30/− NADPH: Clint (μL/min/mg protein)
property measured: microsomal CLint at 1 μM

compound	meas value
CC(C)(c1cc(Cl)c(OCCCl)c(Cl)c1)c1ccc(N2C(=O)N(S(C)(=O)=O)C(C)(C)C2=O)c(C#N)c1 [Compound B10]	12 to 48 µL/min/mg
CC(Oc1ccc(C(C)(C)c2cc(Cl)c(OCCCl)c(C#N)c2)cc1)c1coc(S(C)(=O)=O)n1 (stereo not drawn) [Compound A85]	≥ 48 µL/min/mg
Cc1cc(C(C)(C)c2ccc(OC(C)c3ncc(S(C)(=O)=O)o3)cc2)cc(C#N)c1OCCCl (stereo not drawn) [Compound A89]	≥ 48 µL/min/mg
CC(C)(c1ccc(OCc2ccnc(N3CCCCS3(=O)=O)n2)cc1)c1cc(Cl)c(OCCCl)c(C#N)c1 [Compound A198]	12 to 48 µL/min/mg
CC(C)(c1ccc(NC(=O)c2ocnc2S(C)(=O)=O)cc1)c1cc(Cl)c(OCCCl)c(Cl)c1 [Compound A73]	< 12 µL/min/mg
CC(C)(c1ccc(CCc2ccnc(N)n2)cc1)c1cc(Cl)c(OCCCl)c(C#N)c1 [Compound A121]	12 to 48 µL/min/mg
